Reported growth inhibition is given for each of the following compounds.
- method: NCI Yeast Anticancer Drug Screen. Data for the sgs1 mgt1 strain (AID 161);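 also: 0% = growth of cultures given vehicle only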
- studyConditions: S. cerevisiae sgs1 mgt1 strain, at 50.0 µM, active compounds read high
About 79,000 compounds went through this panel and 15% of them were active in at least one assay; those are over-represented in the sample as a whole.
quantityKind: growth inhibition (%)

CN1C(=O)CNS1(=O)=O: -4.35
O=C(O)CCCc1ccc2c(c1)-c1ccccc1S2=O (stereo not drawn): 1.25
OC1COC(O)(CNCCc2c[nH]c3ccc(OCc4ccccc4)cc23)C(O)C1O (stereo not drawn): -18.2
CCCCOc1ccc([N+](=O)[O-])cn1: 3.15
COC(=O)NC(c1ccccc1)C(C)I (stereo not drawn): -2.85
CS/C(=C\c1ccc(C(=O)c2ccc(C)cc2)n1C)S(C)=O (stereo not drawn): 42.4
c1ccc2[nH]c(N=Nc3cccc4c(N=Nc5cc6ccccc6[nH]5)cccc34)cc2c1: -13.7
O=[N+]([O-])c1cccc2ccc(N/N=C/c3ccccc3O)nc12: 42.2
Fc1c(F)c(F)c(-c2nnc(-c3c(F)c(F)c(F)c(F)c3F)o2)c(F)c1F: -8.75
CC(C)CC(NC(=O)CNC(=O)CNC(=O)OCc1ccccc1)C(=O)O (stereo not drawn): -2.1
O=C(O)COc1ccc(I)cc1I: -4.85
CC1(C)Oc2ccc3c(=O)c(-c4ccccc4)c(-c4ccccc4)oc3c2C1C(=O)O (stereo not drawn): -17.6
O=C(NNc1c(F)c(F)c(C(F)(F)F)c(F)c1F)c1ccccc1: -10.9
CCN(CC)CC(Oc1ccccc1)C(=O)c1ccccc1 (stereo not drawn): 4.75
Cc1ccc(C(=O)OCc2ccccc2CN2CCCCC2)cc1: -22.6
CCOC(=O)Cn1c(=O)n(C)c(=O)c2[nH]cnc21: 17.4
Cc1ccc(S(=O)(=O)N2CCC(C(=O)N3CCCC3)(c3cccc(C)c3)CC2)cc1: -46.4
N#CCCNCCC[Si]12OCCN(CCO1)CCO2: 10.5
CCCCc1nc(C)oc1C(C)C: -8.05
CCOC(=O)N1CCN(C(=O)OCC)C(C)C1 (stereo not drawn): -8.8
CCOC(=O)/C=C1\CCC(C)n2c1nccc2=O (stereo not drawn): -6
NS(=O)(=O)c1ccc(NC(=O)Nc2cccc(Cl)c2)cc1: 15.5
CC(C)NC(=O)OCc1c(COC(=O)NC(C)C)c(S(C)(=O)=O)n2c1CCC2: -15.3
